- TESTED_SYSTEM: hEP4 (Homo sapiens, UniProt P35408)
- Construct: expressed in transfected cells; host or cells: HEK293
- Sequence (P35408 whole entry): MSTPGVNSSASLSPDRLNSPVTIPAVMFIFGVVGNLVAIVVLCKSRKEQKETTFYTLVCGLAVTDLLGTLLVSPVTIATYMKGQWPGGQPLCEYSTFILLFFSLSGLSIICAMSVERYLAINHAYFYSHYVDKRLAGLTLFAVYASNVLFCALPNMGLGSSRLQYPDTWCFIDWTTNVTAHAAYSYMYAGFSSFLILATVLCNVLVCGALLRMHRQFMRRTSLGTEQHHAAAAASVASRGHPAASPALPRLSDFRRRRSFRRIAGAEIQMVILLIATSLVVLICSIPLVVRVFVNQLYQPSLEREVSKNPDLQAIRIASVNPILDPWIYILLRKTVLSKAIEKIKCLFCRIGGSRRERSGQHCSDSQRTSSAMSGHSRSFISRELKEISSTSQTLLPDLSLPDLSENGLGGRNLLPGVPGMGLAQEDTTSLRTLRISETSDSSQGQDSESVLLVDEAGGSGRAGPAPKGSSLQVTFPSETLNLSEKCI
- TEST_SUMMARY: hEP4 cAMP assay
- Type: cell-based
- TEST_CONDITIONS: HEK293 cells overexpressing hEP4; PGE2 agonist 20 nM; graded per Table 21; read-out: IC50 (nM) EP4 cAMP
ENDPOINT: IC50

Example cases with answers are listed next.
### Prompt What does the record list as IC50 for COc1cccc(-c2ccc(Cn3ccc4scc(C(=O)NC5CC6(C5)CC(C(=O)O)C6)c43)cc2)n1 (centres unmarked) ?
### Response < 500 nM

### Prompt Give its IC50 value. Item: Cc1ccc(Cc2c(C)sc(C)c2C(=O)NC2CC3(C2)CC(C(=O)O)C3)cc1 (centres unmarked)
### Response > 10000 nM

### Prompt Given the entry Cc1sc(C)c(C(=O)NC2CC3(C2)CC(C(=O)O)C3)c1Cc1ccc(-c2cc(F)cc(S(C)(=O)=O)c2)cc1 (centres unmarked) , report its measured IC50.
### Response 5000 to 10000 nM

### Prompt I have this molecule here, O=C(NC1CC2(C1)CC(C(=O)O)C2)c1csc2ccn(Cc3ccc(-c4cncc(F)c4)cc3)c12 (centres unmarked) , and I need its recorded IC50.
### Response < 500 nM

Batch of 5 molecules: report IC50 for each.
1. Cc1sc(C)c(C(=O)NC2CC3(C2)CC(C(=O)O)C3)c1Cc1ccc(-c2cccc(F)c2)cc1 (centres unmarked)
2. O=C(NC1CC2(C1)CC(C(=O)O)C2)c1cscc1Cc1ccc(-c2ccccc2)cc1 (centres unmarked)
3. COc1cc(OC)cc(-c2ccc(Cc3c(C)sc(C)c3C(=O)NC3CC4(C3)CC(C(=O)O)C4)cc2)c1 (centres unmarked)
4. O=C(NC1CC2(C1)CC(C(=O)O)C2)c1csc2ccn(Cc3cnc(-c4ccccc4)nc3)c12 (centres unmarked)
5. O=C(NC1CC2(C1)CC(C(=O)O)C2)c1csc2ccn(Cc3ccc(-c4cccnc4)cc3)c12 (centres unmarked)

### Response
1. < 500 nM
2. 500 to 5000 nM
3. < 500 nM
4. < 500 nM
5. < 500 nM

* * *

- TESTED_SYSTEM: hEP2 (Homo sapiens, UniProt P43116)
- Construct: expressed in transfected cells; host or cells: HEK293
- Sequence (P43116 whole entry): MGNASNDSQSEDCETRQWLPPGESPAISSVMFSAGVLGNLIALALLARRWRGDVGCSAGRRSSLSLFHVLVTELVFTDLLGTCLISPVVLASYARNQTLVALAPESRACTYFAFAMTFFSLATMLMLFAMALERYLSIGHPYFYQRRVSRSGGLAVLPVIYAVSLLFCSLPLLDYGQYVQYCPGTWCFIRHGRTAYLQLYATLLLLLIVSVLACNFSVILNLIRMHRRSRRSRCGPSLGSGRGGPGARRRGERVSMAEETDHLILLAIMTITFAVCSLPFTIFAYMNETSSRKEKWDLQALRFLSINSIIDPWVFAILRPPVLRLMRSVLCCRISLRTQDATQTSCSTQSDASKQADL
- TEST_SUMMARY: hEP2 cAMP assay
- Type: cell-based
- TEST_CONDITIONS: HEK293 cells overexpressing hEP2; PGE2 agonist 400 pM; graded per Table 21; read-out: IC50 (nM) EP2 cAMP
ENDPOINT: IC50

Use these answered entries as a reference point.
### Prompt Dear colleague, I am looking for the recorded IC50 of the following molecule: COc1cc(F)cc(-c2ccc(Cn3ccc4scc(C(=O)NC5CC6(C5)CC(C(=O)O)C6)c43)cn2)c1 (stereo not drawn)
### Response < 500 nM

### Prompt Give the measured IC50 of O=C(NC1CC2(C1)CC(C(=O)O)C2)c1csc2ccn(Cc3ccc(-c4ccccc4)nc3)c12 (stereo not drawn) .
### Response 500 to 5000 nM

### Prompt Can you share its IC50? I mean this molecule: Cc1sc(C)c(N(C)c2ccc(-c3ccccc3)cc2)c1C(=O)NC1CC2(C1)CC(C(=O)O)C2 (stereo not drawn)
### Response > 10000 nM

### Prompt GET /values?readout=IC50&item= COc1cc(F)cc(-c2ccc(Cn3ccc4sc(C)c(C(=O)NC5CC6(C5)CC(C(=O)O)C6)c43)cc2)c1 (stereo not drawn)
### Response 500 to 5000 nM

### Prompt Tell me the measured IC50 of COc1cc(F)cc(-c2ccc(Cc3c(C)sc(C)c3C(=O)N[C@H]3CC4(C3)C[C@H](C(=O)O)C4)cc2)c1 (single isomer, unassigned) [Example 34b] , please.
### Response < 500 nM

I would be grateful if you could provide IC50 for each of the following entries.
1. Cc1ccc(Cc2c(C)sc(C)c2C(=O)NC2CC3(C2)CC(C(=O)O)C3)cc1 (stereo not drawn)
2. COc1cccc(-c2ccc(Cc3c(C)sc(C)c3C(=O)NC3CC4(C3)CC(C(=O)O)C4)cc2)c1 (stereo not drawn)
3. CCOc1cc(F)cc(-c2ccc(Cc3c(C)sc(C)c3C(=O)NC3CC4(C3)CC(C(=O)O)C4)cc2)c1 (stereo not drawn)
4. O=C(NC1CC2(C1)CC(C(=O)O)C2)c1csc2ccn(CCc3ccc(-c4ccccc4)cc3)c12 (stereo not drawn)
5. Cc1sc(C)c(C(=O)NC2CC3(C2)CC(C(=O)O)C3)c1Cc1ccc(-c2cc(F)cc(CN)c2)cc1 (stereo not drawn)

### Response
1. > 10000 nM
2. 500 to 5000 nM
3. 500 to 5000 nM
4. > 10000 nM
5. > 10000 nM

Record IC50 for all entries; do not skip any.
1. Cc1sc(C)c(C(=O)NC2CC3(C2)CC(C(=O)O)C3)c1Cc1ccc(-c2cc(F)cc(F)c2)cc1 (stereo not drawn)
2. Cc1sc(C)c(C(=O)NC2CC3(C2)CC(C(=O)O)C3)c1Cc1ccc(C2=CCCCC2)cc1 (stereo not drawn)
3. Cc1sc(C)c(C(=O)NC2CC3(C2)CC(C(=O)O)C3)c1Cc1ccc(-c2ccc(OC(F)(F)F)cc2)cc1 (stereo not drawn)
4. Cc1sc(C)c(C(=O)NC2CC3(C2)CC(C(=O)O)C3)c1Cc1ccccc1-c1ccccc1 (stereo not drawn)
5. Cc1scc(C(=O)NC2CC3(C2)CC(C(=O)O)C3)c1Cc1ccc(-c2ccccc2)cc1 (stereo not drawn)

### Response
1: 5000 to 10000 nM; 2: > 10000 nM; 3: > 10000 nM; 4: > 10000 nM; 5: 500 to 5000 nM
